- assay.explanation: Solubilization test of compound 1 with surfactants in FaSSIF
- Type: physicochemical
- test.parameters: FaSSIF (pH 6.5) with 5 mg SLS, 50 mg API in 5 mL, 37° C., 4 h; read-out: Concentration of API in vehicle
recorded.metric: solubility at 4 h (µg/mL)
Number in µg/mL, nothing else.

Challenge: Look at this compound and give its reported solubility at 4 h. NS(=O)(=O)c1cc(NC(=O)Cc2ccccc2Cl)cc2nn(C(F)F)cc12 [compound 1]
Response given: 652

----------
- assay.explanation: Solubilization test of compound 1 with surfactants in FaSSIF
- Assay type: physicochemical
- test.parameters: FaSSIF (pH 6.5) with 5 mg VE-TPGS, 50 mg API in 5 mL, 37° C., 1 h; read-out: Concentration of API in vehicle
recorded.metric: solubility at 1 h (µg/mL)
Number in µg/mL, nothing else.

Challenge: Look at this compound and give its reported solubility at 1 h. NS(=O)(=O)c1cc(NC(=O)Cc2ccccc2Cl)cc2nn(C(F)F)cc12 [compound 1]
Response given: 2120

----------
- assay.explanation: Solubilization test of compound 1 with surfactants in FaSSIF
- Type: physicochemical
- test.parameters: fassif with poloxamer 407; FaSSIF (pH 6.5) with 5 mg Poloxamer 407, 50 mg API in 5 mL, 37° C., 1 h; read-out: Concentration of API in vehicle
recorded.metric: solubility at 1 h (µg/mL)
Number in µg/mL, nothing else.

Challenge: Look at this molecule and give its reported solubility at 1 h. NS(=O)(=O)c1cc(NC(=O)Cc2ccccc2Cl)cc2nn(C(F)F)cc12 [compound 1]
Response given: 861

----------
- assay.explanation: Solubilization test of compound 1 with surfactants in FaSSIF
- Format: physicochemical
- test.parameters: fassif with tween 80; FaSSIF (pH 6.5) with 5 mg Tween 80, 50 mg API in 5 mL, 37° C., 0.5 h; read-out: Concentration of API in vehicle
recorded.metric: solubility at 0.5 h (µg/mL)
Number in µg/mL, nothing else.

Challenge: Look at this compound and give its reported solubility at 0.5 h. NS(=O)(=O)c1cc(NC(=O)Cc2ccccc2Cl)cc2nn(C(F)F)cc12 [compound 1]
Response given: 899
